System: Staphylococcus aureus
Protocol Summary: Antibacterial activity against methicillin-resistant Staphylococcus aureus isolate 612 assessed as bacterial growth inhibition measured after 18 hrs by CLSI protocol based two-fold serial microdilution method
Type: functional
Applied Conditions: isolate 612, 18 h
Quantity Kind: MIC
For clarity, give the value followed by its unit.

(Q) # MIC lookup, item CC[C@@H](C(=O)[C@@H](C)[C@@H](O)[C@H](C)[C@@H]1O[C@@H]([C@@H](CC)C(=O)O)CC[C@@H]1C)[C@H]1O[C@]2(C=C[C@@H](O)[C@]3(CC[C@@](C)([C@H]4CC[C@](O)(CC)[C@H](C)O4)O3)O2)[C@H](C)C[C@@H]1C
(A) 1.33 µM
